Listed here are compounds together with their documented IC90.
# Tested on: Mycobacterium tuberculosis H37Rv
# Protocol: microbe, parasite or virus in culture
# Type: cell-based
# Measurement setup: Mycobacterium tuberculosis, H37RV, 120 h, 5-day incubation; […]; read-out: Anti-tubercular activity M. tuberculosis (H37Rv) IC90

Chem smiles | IC90
COc1cccc(C(=O)/C=C/c2ccc(Cl)cc2)c1 | ≥ 28 µM
O=C(/C=C/c1cccnc1)c1ccc(Cl)cc1 | 77 µM
O=C(/C=C/c1cccnc1)c1ccc(O)cc1 | > 100 µM
O=C(/C=C/c1cccnc1)c1c2ccccc2cc2ccccc12 | 48 µM
O=C(/C=C/c1cccnc1)c1ccccc1O | > 100 µM

---

# System: Mycobacterium tuberculosis H37Rv
# Protocol: microbe, parasite or virus in culture
# Type: cell-based
# Measurement setup: Mycobacterium tuberculosis, H37RV, 120 h, 5-day incubation; […]; read-out: Anti-tubercular activity M. tuberculosis (H37Rv) IC90
Quantity measured: log10 of IC90 (log10 of the value in µM)

Compound | log10 of IC90
O=C(/C=C/c1ccc(Br)cc1)c1ccccc1O | 1.99
O=C(/C=C/c1cccnc1)c1ccc(-c2ccccc2)cc1 | 0.95
O=C(/C=C/c1cccc(Br)c1)c1cccnc1 | 1.81
Oc1ccccc1C1=NNC(c2ccc(Br)cc2)C1 (centres unmarked) | 1.53
COc1cc(C(=O)/C=C/c2cccnc2)cc(OC)c1OC | 1.77

---

# Test system: Mycobacterium tuberculosis H37Rv
# Protocol: microbe, parasite or virus in culture
# Assay type: cell-based
# Measurement setup: Mycobacterium tuberculosis, H37RV, 120 h, 5-day incubation; […]; read-out: Anti-tubercular activity M. tuberculosis (H37Rv) IC90

Compound | IC90
COc1cccc(C(=O)/C=C/c2ccc(Br)cc2)c1 | 28 µM
O=C(/C=C/c1cccnc1)c1ccc(Cl)c(Cl)c1 | 28 µM
COc1ccccc1C(=O)/C=C/c1ccc(Br)cc1 | 59 µM
CO[C@H]1/C=C/O[C@@]2(C)Oc3c(C)c(O)c4c(O)c(c(/C=N/N5CCN(C)CC5)c(O)c4c3C2=O)NC(=O)/C(C)=C\C=C\[C@H](C)[C@H](O)[C@@H](C)[C@@H](O)[C@@H](C)[C@H](OC(C)=O)[C@@H]1C [Rifampicin, reference compound] | 0.0087 µM
O=C(/C=C/c1cccnc1)c1ccc2ccc3cccc4ccc1c2c34 | 22 µM
Oc1ccccc1C1=NNC(c2cn(-c3ccccc3)nc2-c2ccccc2)C1 (centres unmarked) | > 25 µM
O=C(/C=C/c1ccc(Cl)cc1)c1ccccc1O | 97 to 100 µM
O=C(/C=C/c1cn(-c2ccccc2)nc1-c1ccccc1)c1ccccc1O | 97 to 100 µM

---

Listed here are molecules together with their documented IC50 at 96 h.
# Protocol: MDA-468 MTT cytotoxicity screening
# Type: cell-based
# Measurement setup: human, MDA-MB-468 (MDA468) breast cancer cells, quadruplicate

Molecule | IC50 at 96 h (µM)
O=C(/C=C/c1cccnc1)c1c2ccccc2cc2ccccc12 | 0.3
COc1cc(C(=O)/C=C/c2cccnc2)cc(OC)c1OC | 0.7
O=C(/C=C/c1cccc(Br)c1)c1cccnc1 | 0.7
O=C(/C=C/c1cccnc1)c1ccc(-c2ccccc2)cc1 | 3.5
O=C(/C=C/c1cccnc1)c1ccc2ccc3cccc4ccc1c2c34 | 4
O=C(/C=C/c1cccnc1)c1ccc(O)cc1 | 30
COc1ccc(/C=C\c2cc(OC)c(OC)c(OC)c2)cc1O [Combretastatin A-4, reference compound] | 0.003
O=C(/C=C/c1cccnc1)c1ccccc1O | 8
